Target Under Test: Vasopressin V2 receptor (Bos taurus, UniProt P48044)
Sequence (P48044 whole entry): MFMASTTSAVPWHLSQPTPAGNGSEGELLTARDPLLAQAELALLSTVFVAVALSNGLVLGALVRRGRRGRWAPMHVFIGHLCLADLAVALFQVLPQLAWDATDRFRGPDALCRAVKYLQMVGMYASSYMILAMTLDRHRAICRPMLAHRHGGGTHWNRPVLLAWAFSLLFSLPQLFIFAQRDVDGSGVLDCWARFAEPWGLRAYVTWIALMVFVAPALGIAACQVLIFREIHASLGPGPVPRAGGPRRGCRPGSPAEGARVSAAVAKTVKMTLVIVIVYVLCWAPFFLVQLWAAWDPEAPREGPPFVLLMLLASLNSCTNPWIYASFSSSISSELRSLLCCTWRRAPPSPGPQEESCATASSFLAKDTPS
pKd: −log10 of the molar value.
Measurement Name: pKd

Before answering, review these 2 worked examples.
CC[C@H](C)[C@@H]1NC(=O)C(Cc2ccccc2)NC(=O)CCSSC[C@H](C(=O)N(C)CC(=O)N[C@@H](CCCN=C(N)N)C(=O)NCC(N)=O)NC(=O)[C@H](CC(N)=O)NC(=O)[C@H](CCC(N)=O)NC1=O (stereo in doubt)
6.38
CN(CC(=O)N[C@@H](CCCNC(=N)N)C(=O)NCC(N)=O)C(=O)[C@@H]1CSSC2(CCCCC2)CC(=O)N[C@@H](Cc2ccc(O)cc2)C(=O)N[C@@H](Cc2ccccc2)C(=O)N[C@@H](CCC(N)=O)C(=O)N[C@@H](CC(N)=O)C(=O)N1
6.62

1: CC[C@H](C)[C@@H]1NC(=O)C(Cc2ccccc2)NC(=O)CC2(CCCCC2)SSC[C@H](C(=O)N(C)CC(=O)N[C@@H](CCCN=C(N)N)C(=O)NCC(N)=O)NC(=O)[C@H](CC(N)=O)NC(=O)[C@H](CCC(N)=O)NC1=O (stereo in doubt)
2: CCOc1ccc(CC2NC(=O)CC3(CCCCC3)SSC[C@@H](C(=O)N(C)CC(=O)N[C@@H](CCCN=C(N)N)C(=O)NCC(N)=O)NC(=O)[C@H](CC(N)=O)NC(=O)[C@H](CCC(N)=O)NC(=O)[C@H](Cc3ccccc3)NC2=O)cc1 (stereo in doubt)
Query: Higher pKd: 1 or 2 ? Write down the label attached to your selection.
Reply: 2
(2: 7.54, 1: 6.51)

* * *

Recorded Kb for the following molecules
Species on record: Rattus norvegicus
Assay: In vitro antiuterotonic activity in rat oxytocic bioassay in the presence of 1 mM Mg2+
Assay type: functional
Test Context: read-out: pA2 (converted)
Residues, ends and D or L forms follow the SMILES beside them.
# output: bare number, implied unit nM

Before answering, review these 3 worked examples.
CC[C@H](C)[C@@H]1NC(=O)[C@@H](Cc2ccc(OC)cc2)NC(=O)CC2(CCCCC2)SSC[C@@H](C(=O)N(C)CC(=O)N[C@@H](CCCN=C(N)N)C(=O)NCC(N)=O)NC(=O)[C@H](CC(N)=O)NC(=O)[C@H](CCC(N)=O)NC1=O
6.31
CC[C@H](C)[C@@H]1NC(=O)[C@@H](Cc2c[nH]c3ccccc23)NC(=O)CC2(CCCCC2)SSC[C@@H](C(=O)N(C)CC(=O)N[C@@H](CCCN=C(N)N)C(=O)NCC(N)=O)NC(=O)[C@H](CC(N)=O)NC(=O)[C@H](CCC(N)=O)NC1=O (HELM PEPTIDE1{[dW].I.Q.N.C.[Sar].R.G.[am]}|CHEM1{[O=C(CC1(S[*:2])CCCCC1)[*:1]]}$PEPTIDE1,CHEM1,1:R1-1:R1|PEPTIDE1,CHEM1,5:R3-1:R2$$$V2.0)
20
CC[C@H](C)[C@@H]1NC(=O)C(Cc2ccccc2)NC(=O)CC2(CCCCC2)SSC[C@H](C(=O)N(C)CC(=O)N[C@@H](CCCN=C(N)N)C(=O)NCC(N)=O)NC(=O)[C@H](CC(N)=O)NC(=O)[C@H](CCC(N)=O)NC1=O (stereo in doubt)
10

Now for the molecule whose Kb we want.
Entry CCOc1ccc(CC2NC(=O)CC3(CCCCC3)SSC[C@H](C(=O)N(C)CC(=O)N[C@@H](CCCN=C(N)N)C(=O)NCC(N)=O)NC(=O)[C@H](CC(N)=O)NC(=O)[C@H](CCC(N)=O)NC(=O)[C@H]([C@@H](C)CC)NC2=O)cc1 (stereo in doubt) , Kb reported as 7.94
